- experimentalTarget: UniProtKB P51677
- Sequence (P51677 whole entry): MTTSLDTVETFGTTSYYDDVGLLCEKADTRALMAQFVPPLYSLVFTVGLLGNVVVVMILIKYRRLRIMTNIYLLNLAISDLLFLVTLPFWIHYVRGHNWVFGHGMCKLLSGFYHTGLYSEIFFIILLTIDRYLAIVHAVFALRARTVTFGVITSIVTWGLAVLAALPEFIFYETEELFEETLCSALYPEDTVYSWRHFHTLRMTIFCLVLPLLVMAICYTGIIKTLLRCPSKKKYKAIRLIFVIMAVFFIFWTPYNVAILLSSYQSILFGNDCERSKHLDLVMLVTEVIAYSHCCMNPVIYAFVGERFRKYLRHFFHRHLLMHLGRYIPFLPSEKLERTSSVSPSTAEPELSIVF
- testDetails: In vitro inhibition if C-C chemokine receptor type 3 (CCR3) using 150p M [125I]-labeled human eotaxin
quantity: IC50 (nM)
Numbers only here, please. The scale is nM.

| compound | IC50 (nM) |
| --- | --- |
| C[S+]([O-])c1cccc(NC(=O)NCCCN2CCC(Cc3ccc(F)cc3)CC2)c1 (configuration not stated) | 50 |
| O=C(NCCCN1CCC(Cc2ccc(F)cc2)CC1)NCc1ccccc1 | 400 |
| COc1cccc(NC(=O)N2CCOC(CN3CCC(Cc4ccc(F)cc4)CC3)C2)c1 (racemic) | 50 |
| O=C(NCCCN1CC[C@@H]2[C@H](C1)c1cccc3c1N2CC3)Nc1ccc(I)cc1 | 1500 |

IN: Sample "COc1cccc(C(=O)NCCCCN2CC[C@@H]3[C@H](C2)c2cccc4c2N3CC4)c1" — what was its IC50?
OUT: 8100

IN: Recorded IC50 for "CCCC[C@H](O)[C@H]1C[C@@H](Cc2ccccc2)CCN1CCCNC(=O)Nc1cccc(-c2nnnn2C)c1" , please?
OUT: 1

IN: Recorded IC50 of COc1cccc(NC(=O)N2CCCC(N3CCC(Cc4ccc(F)cc4)CC3)C2)c1 (racemic) , please.
OUT: 530

IN: Name the recorded IC50 for "O=C(NCCCN1CC[C@@H]2[C@H](C1)c1cccc3c1N2CC3)Nc1ccc(C(F)(F)F)cc1" .
OUT: 3700

IN: Need IC50 of "N#Cc1cccc(NC(=O)NCCN2CCC(Cc3ccccc3)CC2)c1" , thanks.
OUT: 500

IN: Quick check: IC50 of "CC(=O)c1cccc(NC(=O)NCCCN2CC[C@H](Cc3ccccc3)C[C@@H]2[C@H](C)O)c1" ?
OUT: 20

IN: Data request, read-out IC50, for "O=C(NCCCCN1CCC(Cc2ccccc2)CC1)c1ccc(F)cc1"
OUT: 1000

IN: State the recorded IC50 for this entry: "CSc1cccc(NC(=O)NCCCN2CCC(Cc3ccc(F)cc3)CC2)c1"
OUT: 20

IN: Would you mind telling me what IC50 value was observed for CC[C@H](O)[C@H]1C[C@@H](Cc2ccccc2)CCN1CCCNC(=O)Nc1cccc(C(C)=O)c1 (stereo in doubt) ?
OUT: 8

IN: Which IC50 is reported for this compound? "CS(=O)(=O)c1ccc(NC(=O)NCCCN2CCC(Cc3ccc(F)cc3)CC2)cc1"
OUT: 70

IN: Need IC50, item COc1cccc(NC(=O)N2CCCC(CN3CCC(Cc4ccc(F)cc4)CC3)C2)c1 (racemic)
OUT: 50

IN: Quick one: IC50 for "O=C(NCCCN1CCC(Cc2ccc(F)cc2)CC1)Nc1ccccc1[N+](=O)[O-]" ?
OUT: 89

IN: So what does the record say about IC50 for "N#Cc1cccc(NC(=O)NCCCCCN2CCC(Cc3ccccc3)CC2)c1" ?
OUT: 1200
